species: Homo sapiens; assay: Selectivity index ratio of Ki for human 5-HT1A receptor to Ki for human 5-HT7B
# yes (1) = Ratio Ki below 4 (exclusive); no (0) = Ratio Ki at/above 4

Worked cases, answers included:
>  <compound>
O=S(=O)(NC1CC2CCC(C1)N2CCOc1cccc(-c2ccccc2)c1)c1cccc(F)c1 (stereo not given)

>  <className>
no (0)

$$$$
>  <compound>
CC(C)c1ccccc1OCCN1CCC(NC(=O)c2ccc(F)cc2)CC1

>  <className>
yes (1)

$$$$
>  <compound>
CC(C)c1ccccc1OCCN1CCC(NS(=O)(=O)c2ccc(N)cc2)CC1

>  <className>
no (0)

$$$$
>  <compound>
O=S(=O)(c1cccc(Cl)c1)N1CC2CC1CN2CCOc1ccccc1-c1ccccc1 (stereo not given)

>  <className>
no (0)

$$$$
>  <compound>
CC(C)c1cccc(OCCN2C3CCC2CC(NS(=O)(=O)c2cccc(Cl)c2)C3)c1 (stereo not given)

>  <className>
no (0)

$$$$

Identify whether the compound O=S(=O)(NC1CN(CCOc2ccccc2-c2ccccc2)C1)c1cccc(Cl)c1 records Ratio Ki below 4. yes (1)

Identify whether the compound O=S(=O)(NC1CCN(CCOc2ccccc2C2CCCC2)CC1)c1cccc(Cl)c1 records Ratio Ki below 4. no (0)

Identify whether the compound CC(C)c1cccc(OCCN2C3CCC2CC(NS(=O)(=O)c2cc(F)ccc2F)C3)c1 (stereo not given) records Ratio Ki below 4. no (0)

Identify whether the compound O=S(=O)(NC1CC2CCC(C1)N2CCOc1cccc(-c2ccccc2)c1)c1ccc(F)cc1 (stereo not given) records Ratio Ki below 4. no (0)

Identify whether the compound CC(C)c1ccccc1OCCN1CC2CC1CN2S(=O)(=O)c1cccc(Cl)c1 (stereo not given) records Ratio Ki below 4. yes (1)

Identify whether the compound O=C(NC1CCN(CCOc2ccccc2-c2ccccc2)CC1)c1cccc(Cl)c1 records Ratio Ki below 4. yes (1)

Identify whether the compound O=S(=O)(NC1CCN(CCOc2ccccc2-c2ccccc2)CC1)c1cccnc1 records Ratio Ki below 4. no (0)

Identify whether the compound CC(C)c1ccccc1OCCN1CC2CC1CN2S(=O)(=O)c1ccc(F)cc1 (stereo not given) records Ratio Ki below 4. yes (1)
